# credit: PubChem BioAssay (NCI)

- System: SNB-19 CNS
- assay: NCI-60 one-dose screen, 48 h
- study conditions: 10 µM unless noted
The panel holds about 83,000 compounds, 20% with a hit somewhere; the sample as a whole holds those more often. The source made the active and inactive calls. Rule for the calls: active = growth percent below 10; inactive = the rest.
Thanks in advance; please answer with one of these: y (active), n (inactive)

Solved entries (count: 6):
>  <compound>
Cc1c(C(N)=O)sc2nc(C)n(/N=c3\scc(-c4ccccc4)n3Cc3ccccc3)c(=O)c12

>  <category>
n

$$$$
>  <compound>
CC/C=C/[C@@H]1C=C[C@@H]2CCC[C@H]2[C@@H]1CC[C@H](O)[C@H](C)N

>  <category>
y

$$$$
>  <compound>
COc1ccc(Oc2nc(Nc3ccc(N4CCCCC4)nc3)ncc2NC(=O)c2cc(OC)cc(OC)c2)cc1

>  <category>
n

$$$$
>  <compound>
N=C(N)c1ccc(-c2ccc(/C=C/c3ccccc3)s2)cc1

>  <category>
n

$$$$
>  <compound>
CCOC(=O)C(O)C(O)(c1ccccc1)c1ccccc1 (stereo not given)

>  <category>
n

$$$$
>  <compound>
COc1cc(NC(=O)c2cccc(-c3cc(=O)c4c(O)c(OC)c(OC)cc4o3)c2)cc(OC)c1OC

>  <category>
n

$$$$

Req: How did this test come out for O=C(c1ccccc1)c1ccc(N2C(=O)C3C4c5ccccc5C(/C=C/C(=O)c5ccccn5)(c5ccccc54)C3C2=O)cc1 (stereo not given) ?
Resp: n

Req: Same question, Cn1cc(-c2ccc3nc(-c4ccc(CC(=O)Nc5cc(C(C)(C)C)no5)cc4)cnc3c2)cn1 this time
Resp: n

Req: Then NC(N)=N/N=C(/c1ccccc1)c1ccc(N)cc1 ?
Resp: n

Req: Here is the next compound: CN1CCN(C(=O)[C@@]2(C)CC[C@]3(C)CC[C@]4(C)C(=CC[C@@H]5[C@@]6(C)C/C(=C/c7ccncc7)C(=O)C(C)(C)[C@@H]6CC[C@]54C)[C@@H]3C2)CC1
Resp: n

Req: Then this compound: CC12CC(C#N)CCC1O2 (stereo not given)
Resp: n

Req: Then what about the compound COc1cccc(-c2nc3sccn3c2-c2ccnc(NCCNS(=O)(=O)c3c(Cl)cccc3Cl)c2)c1 ?
Resp: n

###

- System: SF-295 CNS
- assay: NCI-60 one-dose screen, 48 h (100 = growth as untreated, 0 = no growth, -100 = all killed)
- study conditions: 10 µM unless noted
The panel holds about 83,000 compounds, 20% with a hit somewhere; the sample as a whole holds those more often.
value kind: growth (%)
One number for each entry, in %.

Known results for compounds:
>  <compound>
O=C(O)c1ccc(CO)o1

>  <value kind>
growth

>  <recorded measurement>
102

$$$$
>  <compound>
O=c1oc2ccc(Cl)cc2cc1-c1cs/c(=N/N=C\c2ccc(Cl)cc2)n1/N=C/c1ccc(Cl)cc1

>  <value kind>
growth

>  <recorded measurement>
108

$$$$
>  <compound>
COc1ccc(/C(C)=N/NS(=O)(=O)c2ccc(C)cc2)cc1OC

>  <value kind>
growth

>  <recorded measurement>
98.9

$$$$
>  <compound>
COc1cc(C2C=C(c3cccc(NC(C)=O)c3)Nc3ncnn32)cc(OC)c1OC (configuration not stated)

>  <value kind>
growth

>  <recorded measurement>
-58

$$$$
>  <compound>
Cn1cc(Nc2nccc(-c3ccc(N4CCCC4)c(C#N)c3)n2)cn1

>  <value kind>
growth

>  <recorded measurement>
71.3

$$$$
>  <compound>
COc1ccc(/C(C)=C(\c2ccc(Cl)cc2)c2ccc(OCCCN(C)C)cc2)cc1F

>  <value kind>
growth

>  <recorded measurement>
53.5

$$$$

# ---- query compound ----
Req: Request the reported growth associated with CCCCNCC(=O)Nc1ccc(C(=O)OCC)cc1
Resp: 99.4

###

- Test system: 786-0 renal
- assay: NCI-60 one-dose screen, 48 h (100 = growth as untreated, 0 = no growth, -100 = all killed)
- study conditions: 10 µM unless noted
Compounds without any hit were thinned out: in the full panel of roughly 83,000, 20% have a hit.
value kind: growth (%)
Answers are plain numbers, in %.

>  <compound>
Cc1cc(C(c2ccccc2)c2ccccc2)ccc1NS(=O)(=O)c1ccccc1

>  <growth, %>
102

$$$$
>  <compound>
CCOC(=O)c1c(C)nc2c(c1N)/C(=C/c1cc(OC)c(OC)c(OC)c1)C(=O)N2c1ccc(OC)cc1

>  <growth, %>
44.5

$$$$
>  <compound>
CCCCCCCSc1ccc(C(=O)O)cc1

>  <growth, %>
100

$$$$
>  <compound>
COc1ccc(-n2nnc(C(=O)NCCc3c[nH]c4ccc(F)cc34)c2C)cc1

>  <growth, %>
99.6

$$$$
>  <compound>
Cc1cnc(Nc2ccc(N3CCN(C)CC3)cc2)nc1Nc1ccc(Cl)c(NS(=O)(=O)C(C)(C)C)c1

>  <growth, %>
-30.4

$$$$

Please supply growth for each of the following items, keeping them in order.
1. O=S(=O)(NCCNc1cc(-c2c(-c3cccc(O)c3)nc3sccn23)ccn1)c1ccc(Cl)cc1
2. Clc1ccc2[nH]c3c(NCCCN4CCOCC4)ncnc3c2c1
3. Cc1nc(Nc2ccc(N)cc2)c2ccccc2n1
4. COc1cc(-c2ccc(-c3ccc(C(=N)N)nc3)s2)cc(OC)c1OC

Resp:
[62.1, 80.3, 107, 40.3]

Would you be so kind as to report growth for each listed record?
1. CC(C)(O)c1cccc(F)c1
2. COc1cc(NC(=O)c2cccc(-c3cc(=O)c4c(O)c(OC)c(OC)cc4o3)c2)cc(OC)c1OC

Resp:
[104, 66.3]

Below are some compounds; for each one, tell me its growth.
1. COc1cc(/C=C/C(=O)c2cccc(-n3cc(-c4ccc(Cl)cc4)[nH]c3=O)c2)cc(OC)c1OC
2. NS(=O)(=O)c1cn(-c2ncnc3nc[nH]c23)ccc1=O
3. O=C1CCC(N2C(=O)c3cccc(NCCCC4CCN(CCNC(=O)c5cc6c(o5)C(=O)c5ccccc5C6=O)CC4)c3C2=O)C(=O)N1 (centres undefined)

Resp:
[82.2, 96.9, -26.2]

###

- Tested on: OVCAR-8 ovarian
- assay: NCI-60 one-dose screen, 48 h (100 = growth as untreated, 0 = no growth, -100 = all killed)
- study conditions: 10 µM unless noted
Compounds without any hit were thinned out: in the full panel of roughly 83,000, 20% have a hit.
value kind: growth (%)
Answers are plain numbers, in %.

Worked cases, answers included:
>  <molecule>
N=C(N)c1ccc(-c2ccc(-c3ccc(Cl)c(Cl)c3)o2)nc1

>  <target of assay>
OVCAR-8 ovarian

>  <growth [%]>
-16.1

$$$$
>  <molecule>
Cc1cc(C)on1

>  <target of assay>
OVCAR-8 ovarian

>  <growth [%]>
92.4

$$$$
>  <molecule>
CNC1(C#N)CCN(Cc2ccccc2)CC1

>  <target of assay>
OVCAR-8 ovarian

>  <growth [%]>
113

$$$$

For each of the molecules below, note its growth.
1. Cc1nc(-c2ccccc2)cc2c(O)c(C(=O)N/N=C/c3ccc(N(C)C)cc3)[nH]c(=O)c12
2. Cc1c(Cl)cccc1NS(=O)(=O)c1ccccc1
3. CCN(CC)N=Nc1nn(C(=O)Nc2ccc(Cc3ccccc3)cc2)c2ccc(Cl)cc12
4. CCOC(=O)C(=CNc1ccccc1[N+](=O)[O-])C(=O)OCC
5. O=[N+]([O-])c1ccc2[nH]cc(-c3c4ccsc4cc4[nH]c5ccc([N+](=O)[O-])cc5c34)c2c1
6. Fc1ccc(Nc2ccc3cc(OCCCN4CCOCC4)ccc3n2)cc1F
7. Clc1ccc(/C=C/c2nc(Nc3ccc(Cl)cc3)c3ccccc3n2)cc1

Resp:
1. 67.3
2. 112
3. 69.3
4. 101
5. 7.43
6. 66.8
7. 102

Hi! Can you tell me growth for each of these molecules?
1. COc1ccc(-n2sc(=O)n(Cc3ccc(COC(=O)C(C)c4ccc(CC(C)C)cc4)cc3)c2=O)cc1 (centres undefined)
2. CC(C)OCCCNCC(=O)Nc1ccc(S(=O)(=O)c2ccc(NC(=O)CNCCCOC(C)C)cc2)cc1
3. C=C1C(=O)O[C@H]2[C@H]1CC/C(C(=O)NCCCCCCCCNC(=O)/C1=C/CC[C@@]3(C)O[C@H]3[C@H]3OC(=O)C(=C)[C@@H]3CC1)=C\CC[C@@]1(C)O[C@@H]21
4. CCCCN(CCCC)CCCn1c(=O)c2sc3ncccc3c2n2nnc(-c3ccccc3)c12

Resp:
50.1
105
93.4
96.4

###

- Test system: NCI-H322M lung
- assay: NCI-60 one-dose screen, 48 h
- study conditions: 10 µM unless noted
Compounds without any hit were thinned out: in the full panel of roughly 83,000, 20% have a hit. Active and inactive are the calls of the source. The calls were made as follows: active = growth percent below 10; inactive = the rest.
I would appreciate it if you answered using one of these outcomes: active, inactive

Here are 3 molecules together with their reported answers.
>  <chemical smiles>
Cn1cc(-c2ccc3nc(-c4ccc(CC(=O)Nc5cc(C(C)(C)C)no5)cc4)cnc3c2)cn1

>  <category>
inactive

$$$$
>  <chemical smiles>
COc1ccc(N=c2nc3sc4cc(Cl)ccc4n3c(N)c2C#N)cc1

>  <category>
inactive

$$$$
>  <chemical smiles>
CN(C)c1cnccn1

>  <category>
inactive

$$$$

Turning now to a further molecule:
Req: So what was the verdict on C[C@H]1[C@H](C)CC[C@]2(C(=O)N3CCN(C)CC3)CC[C@]3(C)C(=CC[C@@H]4[C@@]5(C)C/C(=C/c6cccnc6)C(=O)C(C)(C)[C@@H]5CC[C@]43C)[C@H]12 in this test?
Resp: active
